# Protocol Text: Cell-Titer Blue cytotoxicity assay
# Type: cell-based
# Condition Details: human, HEK293T cells
Catalogue of molecules with associated viability at 10 µM

Request: Output measured viability at 10 µM for this item: CC(C)CCC[C@@H](C)[C@H]1CCC([C@@H]2CC[C@H]3C[C@H](O)CC[C@]3(C)C2=O)[C@]1(C)C/C=C/C(=O)O (stereo partly drawn) [Compound 7]
Result: > 100%

Request: Output measured viability at 10 µM for this item: CC(=O)O[C@@H]1CC[C@]2(C)C(=O)[C@H](C3CC[C@H]([C@H](C)CCCC(C)C)[C@@]3(C)CC(=O)O)CC[C@H]2C1 (stereo partly drawn) [Compound 3a]
Result: > 100%

Request: Output measured viability at 10 µM for this item: CC(C)CCC[C@@H](C)[C@H]1CCC([C@@H]2CC[C@H]3C[C@H](O)CC[C@]3(C)C2=O)[C@]1(C)CCCC(=O)O (stereo partly drawn) [Compound 8]
Result: > 100%

----------
Catalogue of molecules with associated pIC50
# Assay System: UniProt Q96RI1
# Sequence (Q96RI1 1-486): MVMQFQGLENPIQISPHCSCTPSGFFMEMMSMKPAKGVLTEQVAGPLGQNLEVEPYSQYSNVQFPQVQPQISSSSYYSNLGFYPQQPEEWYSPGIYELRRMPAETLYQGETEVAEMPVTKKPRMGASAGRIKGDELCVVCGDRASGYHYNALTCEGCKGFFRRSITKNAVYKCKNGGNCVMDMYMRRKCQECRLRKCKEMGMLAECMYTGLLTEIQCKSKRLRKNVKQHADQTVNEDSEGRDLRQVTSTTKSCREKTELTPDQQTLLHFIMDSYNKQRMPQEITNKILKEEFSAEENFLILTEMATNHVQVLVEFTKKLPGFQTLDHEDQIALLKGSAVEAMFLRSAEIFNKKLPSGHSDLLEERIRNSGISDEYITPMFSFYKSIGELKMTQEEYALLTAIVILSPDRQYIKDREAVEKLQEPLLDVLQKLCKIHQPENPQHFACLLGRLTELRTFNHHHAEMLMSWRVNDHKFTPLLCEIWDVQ
# Protocol Text: cell-based luciferase reporter assay
API: returns pIC50 as number; meaning -log10 of concentration in mol/L.

molecule="CC(C)CCC[C@@H](C)[C@H]1CCC([C@@H]2CC[C@H]3C[C@H](O)CC[C@]3(C)C2=O)[C@]1(C)CCCC(=O)O (some centres unmarked)" assay_system="UniProt Q96RI1" measured_property=pIC50 experimental_value=5.11

Then there is this molecule:
Request: Output measured pIC50 for this item: C[C@H](CCC(=O)O)[C@H]1CC[C@H]2[C@@H]3[C@H](O)[C@H](O)[C@@H]4C[C@H](O)CC[C@]4(C)[C@H]3CC[C@]12C [HCA, hyocholic acid, reference compound]
Result: 4.56

----------
# Assay System: human FXR (Homo sapiens)
# Protocol Text: cell-based luciferase reporter assay
# Condition Details: HEK-293T
Catalogue of compounds with associated inhibition at 10 µM
Return type: number; implicit unit %.

Here's what some known entries look like.
compound="CC(=O)O[C@H]1CC[C@]2(C)C(=O)[C@H](C3CC[C@H]([C@H](C)CCCC(C)C)[C@@]3(C)CC(=O)O)CC[C@H]2C1 (stereo partly drawn) [Compound 3b]" experimental_value=24.9
compound="CC(C)CCC[C@@H](C)[C@H]1CCC([C@@H]2CC[C@H]3C[C@H](O)CC[C@]3(C)C2=O)[C@]1(C)CCCC(=O)O (stereo partly drawn) [Compound 8]" experimental_value=85.8

Then there is this compound:
Request: Give inhibition at 10 µM for CC(C)CCC[C@@H](C)[C@H]1CCC([C@@H]2CC[C@H]3C[C@H](O)CC[C@]3(C)C2=O)[C@]1(C)C/C=C/C(=O)O (stereo partly drawn) [Compound 7] tested on human FXR (Homo sapiens).
Result: 76.3
